biological target: PI3K (p110γ) (Homo sapiens); assay: PI3Kγ ADP-Glo kinase assay; type: biochemical; settings: PI3Kγ Enzyme activity IC50
Sequence (P48736 whole entry): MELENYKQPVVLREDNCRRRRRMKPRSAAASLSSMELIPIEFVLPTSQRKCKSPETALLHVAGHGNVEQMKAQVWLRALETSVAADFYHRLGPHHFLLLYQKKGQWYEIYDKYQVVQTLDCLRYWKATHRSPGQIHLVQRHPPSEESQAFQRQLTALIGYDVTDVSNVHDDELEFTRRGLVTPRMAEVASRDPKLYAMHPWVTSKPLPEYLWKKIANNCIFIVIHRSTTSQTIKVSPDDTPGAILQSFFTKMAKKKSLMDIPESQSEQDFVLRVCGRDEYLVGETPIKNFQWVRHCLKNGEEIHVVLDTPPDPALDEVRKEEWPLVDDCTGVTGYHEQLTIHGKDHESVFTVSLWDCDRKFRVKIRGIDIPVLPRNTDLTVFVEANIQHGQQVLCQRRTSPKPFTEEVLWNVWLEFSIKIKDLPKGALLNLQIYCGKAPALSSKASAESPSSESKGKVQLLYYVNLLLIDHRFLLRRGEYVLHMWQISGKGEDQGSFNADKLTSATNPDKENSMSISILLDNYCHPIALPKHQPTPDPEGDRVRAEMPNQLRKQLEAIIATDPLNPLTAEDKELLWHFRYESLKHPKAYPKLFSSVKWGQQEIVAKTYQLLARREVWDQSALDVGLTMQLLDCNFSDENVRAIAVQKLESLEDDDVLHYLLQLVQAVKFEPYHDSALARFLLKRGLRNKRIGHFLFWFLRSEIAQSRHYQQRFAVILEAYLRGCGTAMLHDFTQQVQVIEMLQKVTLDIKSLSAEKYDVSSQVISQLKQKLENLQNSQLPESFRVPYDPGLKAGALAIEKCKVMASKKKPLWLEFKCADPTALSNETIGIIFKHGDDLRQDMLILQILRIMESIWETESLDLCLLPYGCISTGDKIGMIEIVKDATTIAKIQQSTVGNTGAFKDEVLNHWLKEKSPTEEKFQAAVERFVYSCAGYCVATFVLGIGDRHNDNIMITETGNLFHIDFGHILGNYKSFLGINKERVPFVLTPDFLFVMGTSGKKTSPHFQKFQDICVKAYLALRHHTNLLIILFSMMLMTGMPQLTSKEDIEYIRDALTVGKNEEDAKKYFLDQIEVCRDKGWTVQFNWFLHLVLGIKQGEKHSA
pIC50: −log10 of the molar value.
# binarize pIC50: threshold 6 inclusive, high side true (1), low side false (0)

Consider the worked cases shown below.
COMPOUND	CATEGORY
CC(C)Oc1c([C@H](C)c2nc(Cl)c3c(N)nccn23)cc(Cl)c(F)c1-c1ccc(C(=O)N(C)C)nc1 [Compound 16A]	true (1)
COc1c(C(C)c2nc(Br)c3c(N)nccn23)cc(Cl)c(C)c1-c1ccc(C)nc1 (centres unmarked)	true (1)

Evaluate CC(C)Oc1c(C(C)c2nc(Cl)c3c(N)nccn23)cc(Cl)c(F)c1C1CNC(=O)C1 (single isomer, unassigned) [Compound 48B] : pIC50 at minimum 6?
true (1)

Evaluate CC(C)Oc1c([C@H](C)c2nc(Cl)c3c(N)nccn23)cc(Cl)c(F)c1-c1ccc(C(F)(F)F)nc1 [Compound 40A] : pIC50 at minimum 6?
false (0)
